Value source: ChEMBL document CHEMBL3286336

molecular target: UniProtKB P25779
Sequence (P25779 whole entry): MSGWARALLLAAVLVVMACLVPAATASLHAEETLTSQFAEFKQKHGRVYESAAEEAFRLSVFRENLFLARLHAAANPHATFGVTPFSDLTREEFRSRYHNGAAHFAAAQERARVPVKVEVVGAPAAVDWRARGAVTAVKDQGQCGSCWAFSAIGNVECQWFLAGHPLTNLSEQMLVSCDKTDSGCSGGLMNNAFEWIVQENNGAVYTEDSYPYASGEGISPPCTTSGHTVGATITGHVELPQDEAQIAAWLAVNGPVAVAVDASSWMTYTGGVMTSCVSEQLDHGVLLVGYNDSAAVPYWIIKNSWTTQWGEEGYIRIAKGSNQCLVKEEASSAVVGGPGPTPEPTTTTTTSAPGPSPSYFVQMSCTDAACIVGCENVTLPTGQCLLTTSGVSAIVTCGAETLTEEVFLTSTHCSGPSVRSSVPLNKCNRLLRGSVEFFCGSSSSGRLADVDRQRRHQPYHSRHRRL
MEASUREMENT KIND: IC50 (µM)
Write the value in µM as a bare number.

Recorded IC50 for O=C(N/N=C/c1c(-c2ccccc2)no[n+]1[O-])c1ccc([N+](=O)[O-])cc1 with UniProtKB P25779, please?
15.1

----------
assay: Selectivity index, ratio of IC50 for human HepG2 cells to IC50 for Trypanosoma cruzi Tulahuen C2C4; format: toxicity, cell-based; conditions: read-out: Ratio IC50
MEASUREMENT KIND: selectivity ratio
Hey, just send me the number, nothing else.

Completed entries (count: 2):
1. Cc1c(/C=N/NC(=O)c2ccc([N+](=O)[O-])cc2)no[n+]1[O-] 28.1
2. O=C(Cn1ccnc1[N+](=O)[O-])NCc1ccccc1 18.7

# ---- query compound ----
Name the recorded selectivity ratio for O=C(N/N=C/c1c(-c2ccccc2)no[n+]1[O-])c1ccc([N+](=O)[O-])cc1 .
15.7

----------
As shown below, each of these compounds has a reported Papp A→B value.
assay: Permeability across apical to basolateral side in human Caco2 cells; format: ADME, cell-based; conditions: Caco-2, read-out: permeability
Include the unit right after the number.

1. O=C(N/N=C/c1c(-c2ccccc2)no[n+]1[O-])c1ccc([N+](=O)[O-])cc1 0.82 ×10⁻⁶ cm/s

# ---- query compound ----
Name the recorded Papp A→B for Cc1c(/C=N/NC(=O)c2ccc([N+](=O)[O-])cc2)no[n+]1[O-] .
43.2 ×10⁻⁶ cm/s

----------
assay: Permeability across basolateral to apical side in human Caco2 cells; type: ADME, cell-based; details: Caco-2, read-out: permeability
MEASUREMENT KIND: Papp B→A

1. O=C(N/N=C/c1c(-c2ccccc2)no[n+]1[O-])c1ccc([N+](=O)[O-])cc1 0.52 ×10⁻⁶ cm/s

# ---- query molecule ----
Name the recorded Papp B→A for Cc1c(/C=N/NC(=O)c2ccc([N+](=O)[O-])cc2)no[n+]1[O-] .
37.6 ×10⁻⁶ cm/s

----------
As shown below, each of these compounds has a reported pIC50 value.
assay: Induction of NO release assessed as nitrite level; assay type: physicochemical
// pIC50: -log10(molar conc.)

1. O=C(N/N=C/c1c(-c2ccccc2)no[n+]1[O-])c1ccc(Cl)cc1 2.37
2. O=C(N/N=C/c1c(-c2ccccc2)no[n+]1[O-])c1ccccc1 3.88
3. O=C(Cc1ccccc1)N/N=C/c1c(-c2ccccc2)no[n+]1[O-] 4.48

Name the recorded pIC50 for O=C(N/N=C/c1c(-c2ccccc2)no[n+]1[O-])c1ccco1 .
3.06

Name the recorded pIC50 for O=C(N/N=C/c1c(-c2ccccc2)no[n+]1[O-])c1ccc([N+](=O)[O-])cc1 .
3.96

----------
As shown below, each of these molecules has a reported pIC50 value.
experiment: Induction of NO release assessed as nitrite level; type: physicochemical
// pIC50: -log10(molar conc.)

1. Cc1c(/C=N/NC(=O)Cc2ccccc2)no[n+]1[O-] 3.05
2. Cc1c(/C=N/NC(=O)c2cccc([N+](=O)[O-])c2)no[n+]1[O-] 4.28
3. Cc1c(/C=N/NC(=O)c2ccccc2Nc2ccccc2)no[n+]1[O-] 3.91
4. O=C(N/N=C/c1c(-c2ccccc2)no[n+]1[O-])c1ccc(Br)cc1 3.22
5. Cc1c(/C=N/NC(=O)c2ccco2)no[n+]1[O-] 2.91
6. Cc1c(/C=N/NC(=O)c2ccccc2)no[n+]1[O-] 3.68

Name the recorded pIC50 for Cc1c(/C=N/NC(=O)c2ccc(Cl)cc2)no[n+]1[O-] .
4.25
